Data provenance: patent US20220112244A1

molecular target: IL-17A (agonist in the IL-17RA/IL17RC dimerization assay) (UniProt Q16552 24-155); experiment: cell-based or functional assay
Sequence (Q16552 24-155 limits assumed): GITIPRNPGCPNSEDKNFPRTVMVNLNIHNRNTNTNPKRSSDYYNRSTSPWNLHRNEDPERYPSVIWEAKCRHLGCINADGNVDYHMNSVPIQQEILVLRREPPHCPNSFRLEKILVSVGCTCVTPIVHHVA
QUANTITY_KIND: IC50 in IL-17RA/IL7RC dimerization assay

Below are 4 binders. Give each one its IC50 in IL-17RA/IL7RC dimerization assay.
1. Ac-VPGDGVMVTIPADLYEWIEE-NH2 [peptide of SEQ ID NO: 39]
2. Ac-IHYTIPADLWDWINK-NH2 [peptide of SEQ ID NO: 172]
3. Ac-IHLTIPADLWDWINK-NH2 [peptide of SEQ ID NO: 169]
4. Ac-IHVTIPPDLWDWINK-NH2 [peptide of SEQ ID NO: 194]

Reply:
1: < 0.2 µM; 2: < 10 µM; 3: < 10 µM; 4: < 10 µM
